Tested on: MS2 coat protein
Assay Info: apparent KD of MS2 coat protein; designed switch direction (-1 OFF switch, 1 ON switch): -1; higher = weaker reporter binding
Details: input ligand: FMN 200 uM
For each entry below, report its apparent KD of MS2 coat protein value.
Answers are plain numbers, in nM.

Sequence Text	apparent KD of MS2 coat protein, nM
GGCACACAUGAGGAUCACCCAUGUGAGGAUAUGCUGCGAUCGUCGUAAGACGAUAGCAGUAGAAGGCACAUGCC [Mat - Exclusion 1 - Eli Mod - D8] (Eterna round: R97, puzzle: Exclusion 1)	22.9
GAACUAAGGCAAAGCUUUAGUCGUACAUGAGGAUCACCCAUGUAGGAUAUGGUAGGCAAAGCAUACCAGAAGGACAGAGUGAUC [Mat - Exclusion NG 3 - Mod of JL - D62] (Eterna round: R96, puzzle: Exclusion NG 3)	387
AUGGCGUUAGGAUAUACUAUGGGCCUGGACAGUGCACCUCCACAUGAGGAUCACCCAUGUAGAAGGAACUCGAG [Eternabot (L2) Solution 99] (Eterna round: R97, puzzle: Exclusion 2)	26.9
ACCAUGUAAGGAUAUCUCGUACAAAGACGCAACUCGUCCAGAGAGAAGGUACAUGAGGAUCACCCAUGUAGACA [Eternabot (Original) Solution 39] (Eterna round: R97, puzzle: Exclusion 4)	152

// next item, apparent KD of MS2 coat protein requested
I would be grateful if you could share the reported apparent KD of MS2 coat protein for GCCGUCAGUGUGAGGAUAUGCCUAUGGAUACGUAGGCAGAAGGCACAUGAGGAUCACCCAUGUCCUAAGACGGC [JL-BMX4-4.33 Eli mod] (Eterna round: R97, puzzle: Brourd's mod of Exclusion 4) .
146

---

Tested on: MS2 coat protein
Assay Info: apparent KD of MS2 coat protein; designed switch direction (-1 OFF switch, 1 ON switch): -1; higher = weaker reporter binding
Details: input ligand: FMN 200 uM
For each entry below, report its apparent KD of MS2 coat protein value.
Answers are plain numbers, in nM.

Sequence Text	Test System	Unit String	Test Value
GUUUAGUGAGGAUAUAAGGCUUCGAUCGAGCGCGGUCUGCUACAGAAGGCACAUGAGGAUCACCCAUGUUUCUC [salish99_ex4_r4_311] (Eterna round: R97, puzzle: Exclusion 4)	MS2 coat protein	nM	29.2
CCUUGUGUUGAGGAUAUGCGCCGGCUCGCUGGCGCAGAAGGCGGCACAUGAGGAUCACCCAUGUCAGUUCGCGG [salish99_ex6_r004_013] (Eterna round: R97, puzzle: Exclusion 6)	MS2 coat protein	nM	426

// next item, apparent KD of MS2 coat protein requested
// map AUUUUGUCAGGAUAUUGUUAGUUUAGUUGUUUGUAUUAGUUCGAGAAGGGACAUGAGGAUCACCCAUGUGAUUU [Ex4 #74] (Eterna round: R97, puzzle: Exclusion 4) to recorded apparent KD of MS2 coat protein (system: MS2 coat protein)
135

---

Tested on: MS2 coat protein
Assay Info: apparent KD of MS2 coat protein; designed switch direction (-1 OFF switch, 1 ON switch): 1; higher = weaker reporter binding
Details: input ligand: FMN 200 uM
Parameter Measured: apparent KD of MS2 coat protein (nM)
Answers are plain numbers, in nM.

Sequence Text	Test System	Parameter Measured	Test Value
AGGCUCAGACGAGGAUAUAUGUGAUCACAUGAGGAUCACCCAUGUCUCGAGCUUCGGCUCGAGACAUAGAAGGCGUCUGAGCCA [SSNG2/3-A1] (Eterna round: R96, puzzle: Same State NG 2)	MS2 coat protein	apparent KD of MS2 coat protein	505
CAUCGUUUGAUAGGAUAUCGCUAUACAUGAGGAUCACCCAUGUUUACCACGCUGGUUUUUCAUACCGAGAAGGAUUCUGAUGUU [salish99_SSNG02_r04_015] (Eterna round: R96, puzzle: Same State NG 2)	MS2 coat protein	apparent KD of MS2 coat protein	36

// next item, apparent KD of MS2 coat protein requested
I would be grateful if you could share the reported apparent KD of MS2 coat protein for GCUCGAUGAGAGUCCUACAUGAGGAUCACCCAUGUAUGUGGGCAGGAUAUCUACAUGCAGAAUGUAGAGAAGGGCCCGUCGAGC [SameState NG3 #57] (Eterna round: R96, puzzle: Same State NG 3) .
35.2
